Data origin, for the record: the supplement of paper PMC11780869

Exercise: state measured cleaved RNA product abundance for each of the sequences provided.
System: Bacillus subtilis
method.summary: cleaved RNA product abundance (RNA/gDNA barcode ratio) relative to median wild-type variant (ratio to wild type); higher = more accumulation of the downstream cleavage product
particulars: experiment (reporter, strain, medium): exp 2b: truncated aprE reporter, strain BJT200; cleavage site: cggR-gapA (positions -7 to +36 mutated)
Keep it simple and answer with nothing but the number.

Ask | Find the measured cleaved RNA product abundance of ACAGACGAAGGAGCCGCAAAGAAGTTATTACGGGATGAATCATCCCTCAATATAAATATCTCTCACTTATTTAAA and report it.
Reply | 0.316

Ask | Find the measured cleaved RNA product abundance of ACAGACGAAGGAGCCGCAAAGAAGTCATTAAGGGATGAATAATCCCTCAATATAAATATCTCTCACTTATTTAAA and report it.
Reply | 0.186

Ask | Find the measured cleaved RNA product abundance of ACAGACGAAGGAGCCGCAAAGAAGTTCTTAAGTGATGAATAATCCCTCAATATAAATATCTCTCACTTATTTAAA and report it.
Reply | 0.0656

Ask | Find the measured cleaved RNA product abundance of ACAGACGAAGGAGCCGCAAAAAATTTATTAAGGGATGAATAATCCCTCAATATAAATATCTCTCACTTATTTAAA and report it.
Reply | 1.19

Ask | Find the measured cleaved RNA product abundance of ACAGACGAAGGAGCCGCAAAGATGTTATTAAGGGATGAATAATCCCTCGATATAAATATCTCTCACTTATTTAAA and report it.
Reply | 0.352

Ask | Find the measured cleaved RNA product abundance of ACAGACGAAGGAGCCGCAAAGAAGTTATTAAGGGAAGAATAATCCCTCAGTATAAATATCTCTCACTTATTTAAA and report it.
Reply | 0.153

Ask | Find the measured cleaved RNA product abundance of ACAGACGAAGGAGCCGCACAGAAGTTATTAATGGATGAATAATCCCTCAATATAAATATCTCTCACTTATTTAAA and report it.
Reply | 0.103

* * *

Test system: Bacillus subtilis
method.summary: cleaved RNA product abundance (RNA/gDNA barcode ratio) relative to median wild-type variant (ratio to wild type); higher = more accumulation of the downstream cleavage product
particulars: experiment (reporter, strain, medium): exp 4a: truncated aprE reporter, strain BJT201 with 2% xylose (RNase J1 expressed); cleavage site: cggR-gapA (positions -7 to +36 mutated)
Label criterion met when cleaved RNA product abundance >= 0.3; otherwise criterion not met.

Ask | Exam item: decide whether the reported cleaved RNA product abundance for ACAGACGAAGGAGCCGCAAAGAAGTTATTAAGGAATGAATAATCCCTCCATATAAATATCTCTCACTTATTTAAA is at least 0.3.
Reply | criterion not met

Ask | Exam item: decide whether the reported cleaved RNA product abundance for ACAGACGAAGGAGCCGCAAAGAAGTTACAAAGGGATGAATAATCCCACAATATAAATATCTCTCACTTATTTAAA is at least 0.3.
Reply | criterion not met

Ask | Exam item: decide whether the reported cleaved RNA product abundance for ACAGACGAAGGAGCCGCAATGAAGTTTTTAAGGGATGAATAATCCCTCAATATAAATATCTCTCACTTATTTAAA is at least 0.3.
Reply | criterion met

Ask | Exam item: decide whether the reported cleaved RNA product abundance for ACAGACGAAGGAGCCGCAAAGAAGTTATTAAGGGATGAATAATCCTTCGATATAAATATCTCTCACTTATTTAAA is at least 0.3.
Reply | criterion not met

Ask | Exam item: decide whether the reported cleaved RNA product abundance for ACAGACGAAGGAGCCGCAAAGAATTTATTAAGGGATGAATAATCCCTCAATATAATTATCTCTCACTTATTTAAA is at least 0.3.
Reply | criterion met

Ask | Exam item: decide whether the reported cleaved RNA product abundance for ACAGACGAAGGAGCCGCAAAGAAGTTATTAAGGGATGAATTATCCCTCAATATAAATATCTCTCACTTATTTAAA is at least 0.3.
Reply | criterion met

* * *

Tested on: Bacillus subtilis
method.summary: cleaved RNA product abundance (RNA/gDNA barcode ratio) relative to median wild-type variant (ratio to wild type); higher = more accumulation of the downstream cleavage product
particulars: experiment (reporter, strain, medium): exp 4a: truncated aprE reporter, strain BJT201 with 2% xylose (RNase J1 expressed); cleavage site: cggR-gapA (positions -7 to +36 mutated)
parameter.measured: cleaved RNA product abundance

Ask | Find the measured cleaved RNA product abundance of ACAGACGAAGGAGCCGCAGAGAAGTTATTAAGGGATGAATAATCCGTCAATATAAATATCTCTCACTTATTTAAA and report it.
Reply | 0.294

Ask | Find the measured cleaved RNA product abundance of ACAGACGAAGGAGCCGCAAAGAAGTTATTTAAGGATGAATAATCCCTCAATATAAATATCTCTCACTTATTTAAA and report it.
Reply | 0.182

Ask | Find the measured cleaved RNA product abundance of ACAGACGAAGGAGCCGCAAAGAAGTTATAAAGGGATGAATAATCCCTCAATATAAATATTTCTCACTTATTTAAA and report it.
Reply | 0.51

Ask | Find the measured cleaved RNA product abundance of ACAGACGAAGGAGCCGCAAAGAAGTTATTAAGGGATGAATAACCCCTAAATATAAATATCTCTCACTTATTTAAA and report it.
Reply | 0.542

* * *

Test system: Bacillus subtilis
method.summary: cleaved RNA product abundance (RNA/gDNA barcode ratio) relative to median wild-type variant (ratio to wild type); higher = more accumulation of the downstream cleavage product
particulars: experiment (reporter, strain, medium): exp 2b: truncated aprE reporter, strain BJT200; cleavage site: cggR-gapA (positions -7 to +36 mutated)
parameter.measured: cleaved RNA product abundance
Keep it simple and answer with nothing but the number.

Ask | Find the measured cleaved RNA product abundance of ACAGACGAAGGAGCCGCAAAGAAGTTATTAAGGGATGAATAATCCCTCTATATAAATATCTCTCACTTATTTAAA and report it.
Reply | 0.42

Ask | Find the measured cleaved RNA product abundance of ACAGACGAAGGAGCCGCAAAGAAGTTATTAAGAGATGAAAAATCCCTCAATATAAATATCTCTCACTTATTTAAA and report it.
Reply | 0.119

Ask | Find the measured cleaved RNA product abundance of ACAGACGAAGGAGCCGCATAGAAGTTATTAAGGGATTAATAATCCCTCAATATAAATATCTCTCACTTATTTAAA and report it.
Reply | 1

Ask | Find the measured cleaved RNA product abundance of ACAGACGAAGGAGCCGCAAAGAAGCTATTAAGGCATGAATAATCCCTCAATATAAATATCTCTCACTTATTTAAA and report it.
Reply | 0.0626

Ask | Find the measured cleaved RNA product abundance of ACAGACGAAGGAGCCGCAAAGAAGTTATTAACGGACGAATAATCCCTCAATATAAATATCTCTCACTTATTTAAA and report it.
Reply | 0.0519

Ask | Find the measured cleaved RNA product abundance of ACAGACGAAGGAGCCGCAATGAAGTCATTAAGGGATGAATAATCCCTCAATATAAATATCTCTCACTTATTTAAA and report it.
Reply | 0.189

Ask | Find the measured cleaved RNA product abundance of ACAGACGAAGGAGCCGCAAAGAAGTTATTAAAGGATGAATAATCCCTGAATATAAATATCTCTCACTTATTTAAA and report it.
Reply | 0.133

* * *

Exercise: state measured cleaved RNA product abundance for each of the sequences provided.
System: Bacillus subtilis
method.summary: cleaved RNA product abundance (RNA/gDNA barcode ratio) relative to median wild-type variant (ratio to wild type); higher = more accumulation of the downstream cleavage product
particulars: experiment (reporter, strain, medium): exp 2b: truncated aprE reporter, strain BJT200; cleavage site: cggR-gapA (positions -7 to +36 mutated)
Keep it simple and answer with nothing but the number.

Ask | Find the measured cleaved RNA product abundance of ACAGACGAAGGAGCCGCAAAGAAGTTATAAAGGGATGAATAATCCCTCAATTTAAATATCTCTCACTTATTTAAA and report it.
Reply | 0.146

Ask | Find the measured cleaved RNA product abundance of ACAGACGAAGGAGCCGCAAATAAGTTATTAAGGGATGAATAATCCCTCAATATAGATATCTCTCACTTATTTAAA and report it.
Reply | 0.715

Ask | Find the measured cleaved RNA product abundance of ACAGACGAAGGAGCCGCAAAGAAGTTATTAAGGGATCAACAATCCCTCAATATAAATATCTCTCACTTATTTAAA and report it.
Reply | 1

Ask | Find the measured cleaved RNA product abundance of ACAGACGAAGGAGCCGCAAAGAAGTTATTAAGGGATGTATAATCCATCAATATAAATATCTCTCACTTATTTAAA and report it.
Reply | 0.175

Ask | Find the measured cleaved RNA product abundance of ACAGACGAAGGAGCCGCAAAGAAGTTATTAAGGGATGAATAAACCCTCAACATAAATATCTCTCACTTATTTAAA and report it.
Reply | 0.122

Ask | Find the measured cleaved RNA product abundance of ACAGACGAAGGAGCCGCAAAGAAGTTATTACGGGATGAATAATCCCTAAATATAAATATCTCTCACTTATTTAAA and report it.
Reply | 0.428

Ask | Find the measured cleaved RNA product abundance of ACAGACGAAGGAGCCGCAAAGAAGTTATTAAGGAATGAATAATCCCTCTATATAAATATCTCTCACTTATTTAAA and report it.
Reply | 0.12

Ask | Find the measured cleaved RNA product abundance of ACAGACGAAGGAGCCGCAAAGAAGTTATTAAGAGATGAATAATCACTCAATATAAATATCTCTCACTTATTTAAA and report it.
Reply | 0.0955

Ask | Find the measured cleaved RNA product abundance of ACAGACGAAGGAGCCGCAAAGAAGTTATTAATGGATGAATAATCCCTCAATATATATATCTCTCACTTATTTAAA and report it.
Reply | 0.0976

Ask | Find the measured cleaved RNA product abundance of ACAGACGAAGGAGCCGCAAAGAAGTTATTAAGCGATGAATAATCCCTCAATATAAATATCTCTCACTTATTTAAA and report it.
Reply | 0.0916

Ask | Find the measured cleaved RNA product abundance of ACAGACGAAGGAGCCGCAAAGAAGTTATTAAGGGATGAATACTCCCTCAAAATAAATATCTCTCACTTATTTAAA and report it.
Reply | 0.176

Ask | Find the measured cleaved RNA product abundance of ACAGACGAAGGAGCCGCAAAGAAGTTATTAAAGTATGAATAAACCCTCAATATAAATATCTCTCACTTATTTAAA and report it.
Reply | 0.102

Ask | Find the measured cleaved RNA product abundance of ACAGACGAAGGAGCCGCAAAGAAGTTATTAAGGGATGACTAATCCCTCAATATAAATATCTCTCACTTATTTAAA and report it.
Reply | 0.603

Ask | Find the measured cleaved RNA product abundance of ACAGACGAAGGAGCCGCAAAGAAGTTATTAAGGCATGAATAATCCCTCAATATAAATTTCTCTCACTTATTTAAA and report it.
Reply | 0.0999

Ask | Find the measured cleaved RNA product abundance of ACAGACGAAGGAGCCGCAAAGAAGTTATTAAGGGATGAATAAACCCTCAATATATATATCTCTCACTTATTTAAA and report it.
Reply | 0.488

Ask | Find the measured cleaved RNA product abundance of ACAGACGAAGGAGCCGCAAAGAAGCTATTAAGAGATGAATAATCCCTCAATATAAATATCTCTCACTTATTTAAA and report it.
Reply | 0.0974

Ask | Find the measured cleaved RNA product abundance of ACAGACGAAGGAGCCGCAAAGAAGTTATTAAGGGATGAATAATCCATCTATATAAATATCTCTCACTTATTTAAA and report it.
Reply | 0.191

Ask | Find the measured cleaved RNA product abundance of ACAGACGAAGGAGCCGCAAAGAATTTATTAAGGGACGAATAATCCCTCAATATAAATATCTCTCACTTATTTAAA and report it.
Reply | 0.463

Ask | Find the measured cleaved RNA product abundance of ACAGACGAAGGAGCCGCAAAAAAGTTATTAAGGGATGAATAAACCCTCAATATAAATATCTCTCACTTATTTAAA and report it.
Reply | 0.468

Ask | Find the measured cleaved RNA product abundance of ACAGACGAAGGAGCCGCAAAGAAGTTATTAAGGGATGTATAATCCCTAAATATAAATATCTCTCACTTATTTAAA and report it.
Reply | 0.551

Ask | Find the measured cleaved RNA product abundance of ACAGACGAAGGAGCCGCAAAAAAGTTATTAAGGGATGACTAATCCCTCAATATAAATATCTCTCACTTATTTAAA and report it.
Reply | 0.504

Ask | Find the measured cleaved RNA product abundance of ACAGACGAAGGAGCCGCAAAGAAGTTATTAAGGGATGAATAATCCCTCAATATAACTATCTCTCACTTATTTAAA and report it.
Reply | 0.201

Ask | Find the measured cleaved RNA product abundance of ACAGACGAAGGAGCCGCAAAGAAGTCATTAAGGGATGAAAAATCCCTCAATATAAATATCTCTCACTTATTTAAA and report it.
Reply | 0.173

Ask | Find the measured cleaved RNA product abundance of ACAGACGAAGGAGCCGCAAAGAAGTTATTAATGGATGAATAATGCCTCAATATAAATATCTCTCACTTATTTAAA and report it.
Reply | 0.0612

Ask | Find the measured cleaved RNA product abundance of ACAGACGAAGGAGCCGCAAAGGAGTTATTAAGGGATAAATAATCCCTCAATATAAATATCTCTCACTTATTTAAA and report it.
Reply | 0.828

Ask | Find the measured cleaved RNA product abundance of ACAGACGAAGGAGCCGCAAAGAAGTGATTAAGGCATGAATAATCCCTCAATATAAATATCTCTCACTTATTTAAA and report it.
Reply | 0.11

Ask | Find the measured cleaved RNA product abundance of ACAGACGAAGGAGCCGCAAAGATGTTATTAAGGGATGAATAATCCCACAATATAAATATCTCTCACTTATTTAAA and report it.
Reply | 0.227

Ask | Find the measured cleaved RNA product abundance of ACAGACGAAGGAGCCGCAAAGAAGTTATTAAGGGATGAATAACTCCTCAATATAAATATCTCTCACTTATTTAAA and report it.
Reply | 0.14

Ask | Find the measured cleaved RNA product abundance of ACAGACGAAGGAGCCGCAAAGAAGATATTAAGGGATGAATAATACCTCAATATAAATATCTCTCACTTATTTAAA and report it.
Reply | 0.162

Ask | Find the measured cleaved RNA product abundance of ACAGACGAAGGAGCCGCAAAGAAGTTATTAAGGGATGAAAAAACCCTCAATATAAATATCTCTCACTTATTTAAA and report it.
Reply | 0.411
